- system tested: T1, Biotinylated human DLL3 (human, UniProt Q9NYJ7 27-492, biotinylated (site not stated))
- T1 construct: also called Delta-like ligand 3; Delta Like Canonical Notch Ligand 3
- T1 sequence (looked up): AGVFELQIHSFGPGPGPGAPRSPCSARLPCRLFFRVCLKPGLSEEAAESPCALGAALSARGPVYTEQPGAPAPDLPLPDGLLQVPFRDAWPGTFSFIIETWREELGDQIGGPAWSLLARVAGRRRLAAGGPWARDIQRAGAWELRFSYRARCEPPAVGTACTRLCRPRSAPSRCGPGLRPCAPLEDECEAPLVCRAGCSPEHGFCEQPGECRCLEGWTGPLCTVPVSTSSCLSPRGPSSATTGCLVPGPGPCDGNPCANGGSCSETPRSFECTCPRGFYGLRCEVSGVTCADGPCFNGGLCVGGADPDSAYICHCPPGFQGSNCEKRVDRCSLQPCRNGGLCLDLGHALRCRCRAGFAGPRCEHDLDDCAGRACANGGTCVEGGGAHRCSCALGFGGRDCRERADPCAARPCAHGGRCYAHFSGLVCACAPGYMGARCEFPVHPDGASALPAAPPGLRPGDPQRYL
- assay summary: SPR, biotin-hDLL3 on SA chip
Bridge positions count the residues as written; N and C are the ends. Square brackets hold non-standard residues; d marks the D form. * marks the point of attachment. DOTA = O=C(O)CN1CCN(CC(=O)O)CCN(CC(=O)*)CCN(CC(=O)O)CC1; Chg = N[C@H](C(=O)O)C1CCCCC1
attribute measured: binding result

binder	attribute measured	result
Ac-[Chg]SDCK(DOTA)LQWNCPFD-NH2 (disulfide 4-10; SMILES CC(=O)N[C@H](C(=O)N[C@@H](CO)C(=O)N[C@@H](CC(=O)O)C(=O)N[C@H]1CSSC[C@@H](C(=O)N2CCC[C@H]2C(=O)N[C@@H](Cc2ccccc2)C(=O)N[C@@H](CC(=O)O)C(N)=O)NC(=O)[C@H](CC(N)=O)NC(=O)[C@H](Cc2c[nH]c3ccccc23)NC(=O)[C@H](CCC(N)=O)NC(=O)[C@H](CC(C)C)NC(=O)[C@H](CCCCNC(=O)CN2CCN(CC(=O)O)CCN(CC(=O)O)CCN(CC(=O)O)CC2)NC1=O)C1CCCCC1) [Cpd #97]	binding result	no binding
Ac-MSDCALQWNCPFD-NH2 (disulfide 4-10; SMILES CSCC[C@H](NC(C)=O)C(=O)N[C@@H](CO)C(=O)N[C@@H](CC(=O)O)C(=O)N[C@H]1CSSC[C@@H](C(=O)N2CCC[C@H]2C(=O)N[C@@H](Cc2ccccc2)C(=O)N[C@@H](CC(=O)O)C(N)=O)NC(=O)[C@H](CC(N)=O)NC(=O)[C@H](Cc2c[nH]c3ccccc23)NC(=O)[C@H](CCC(N)=O)NC(=O)[C@H](CC(C)C)NC(=O)[C@H](C)NC1=O) [Cpd #22]	binding result	no binding
